system: Pseudomonas fluorescens HPPD polypeptide (wild-type and mutants); assay: Coupled HPPD activity assay: turnover and residual turnover in crude HPPD polypeptide extracts with and without Cmpd. 1; type: biochemical; details: 100 μM Cmpd. 1, normalised to turnover without inhibitor
Exercise: state measured Residual turnover [%] for each of the molecules provided.

* SEQ ID NO:9 (protein, mutant HPPD polypeptide) MADLYENPMGLMGFEFIEFASPTPGTLEPIFEIMGFTKVATHRSKNVHLYRQGEINLILNNEPNSIASYFAAEHGPSVCGMAFRVKDSQKAYNRALELGAQPIHIDTGPMELNLPAIKGIGGAPLYLIDRFGEGSSIYDIDFVYLEGVERNPVGAGLKVIDHLTHNVYRGRMVYWANFYEKLFNFREARYFDIKGEYTGLTSKAMSAPDGMIRIPLNEESSKGAGQIEEFLMQFNGEGIQHVAFLTDDLVKTWDALKKIGMRFLTAPGDEYYEMLEGRLPDHGEPVDQLQARGILLDGSSVEGDKRLLLQIFSETLMGPVFFEFIQRKGDDGFGPDSFKVLFESIERDQVRRGVLTAD | 65%

Please turn your attention to the following entry.
Data request: Fill in reported Residual turnover [%] for this entry: SEQ ID NO:60 (protein, mutant HPPD polypeptide) MADLYENPMGLMGFEFIEFASPTPGTLEPIFEIMGFTKVATHRSKNVHLYRQGEINLILNNEPNSIASYFAAEHGPSVCGMAFRVKDSQKAYNRALELGAQPIHIDTGPMELNLPAIKGIGGAPLYLIDRFGEGSSIYDIDFVYLEGVERNPVGAGLKVIDHLTHNVYRGRMVYWANFYEKLFNFREARYFDIKGEYTGLTSKAMSAPDGMIKIPLNEESSKGAGQIEEFLMQFNGEGIQHVAFLTDDLVKTWDALKKIGMRFLTAPGDEYYEMLEGRLPDHGEPVDQLQARGILLDGSSVEGDKRLLLQIFSEKLMGPVFFEFIQRKGDDGFGPDSFKVLFEQMERDQVRRGVLTAD
Data returned: 56%
